The measurements presented in this section are drawn from paper PMC9018054.

Substrate: CC(C)=CCC/C(C)=C/CC/C(C)=C/CO[P@@](=O)(O)OP(=O)(O)O
experiment-description: purified protein
Assay type: biochemical, Coniophora puteana
test-settings: 25 °C, FPP 0-70 µM in methanol, 0.8–1.2 µM enzyme
quantity-kind: kcat/Km (M⁻¹ s⁻¹)
One number for each entry, in M⁻¹ s⁻¹.

Copu9 (Coniophora puteana RWD-64-598 SS2; T73C) (protein, full-length, codon-optimized, N-terminal hexa-His tag (pET-M11), expressed in E. coli BL21 RIL DE3; homodimer; 13 N-terminal residues not visible in crystal) MSPTATFTTTSSEENAPTKFILPDLVSDCTYPLLLNDNCEPVARASEQWLIAGARLQEPRRTKFMGLLAGELCAACYPHADASHLRVCVDFMNWLFNMDDWLDDFDVDDTWGMRHCCLGAFRDPVGFETDKLGGLMSKSFFSRFRQDGGPGCTERFIHTMDLFFIAVAQQAGDRANGITPDLESYITVRRDTSGCKPCFALIEYAAGIDLPDHVIYHPTLAAMEEATNDLVTWSNDIFSYNKEQVTDDTHNMIPVLMRERGLDLQGAVDFVGRLCKGTIERFETERARLPSWGPELDAQVQTYIEGLQNWIVGSLHWSFDSHRYFGKDGHAVKKHRIVKLLPKRVPQQA	8000
Copu9 (Coniophora puteana RWD-64-598 SS2; C195V) (protein, full-length, codon-optimized, N-terminal hexa-His tag (pET-M11), expressed in E. coli BL21 RIL DE3; homodimer; 13 N-terminal residues not visible in crystal) MSPTATFTTTSSEENAPTKFILPDLVSDCTYPLLLNDNCEPVARASEQWLIAGARLQEPRRTKFMGLLAGELTAACYPHADASHLRVCVDFMNWLFNMDDWLDDFDVDDTWGMRHCCLGAFRDPVGFETDKLGGLMSKSFFSRFRQDGGPGCTERFIHTMDLFFIAVAQQAGDRANGITPDLESYITVRRDTSGVKPCFALIEYAAGIDLPDHVIYHPTLAAMEEATNDLVTWSNDIFSYNKEQVTDDTHNMIPVLMRERGLDLQGAVDFVGRLCKGTIERFETERARLPSWGPELDAQVQTYIEGLQNWIVGSLHWSFDSHRYFGKDGHAVKKHRIVKLLPKRVPQQA	4690

Go through the list and state kcat/Km for each entry.
1. Copu9 (Coniophora puteana RWD-64-598 SS2; S314N) (protein, full-length, codon-optimized, N-terminal hexa-His tag (pET-M11), expressed in E. coli BL21 RIL DE3; homodimer; 13 N-terminal residues not visible in crystal) MSPTATFTTTSSEENAPTKFILPDLVSDCTYPLLLNDNCEPVARASEQWLIAGARLQEPRRTKFMGLLAGELTAACYPHADASHLRVCVDFMNWLFNMDDWLDDFDVDDTWGMRHCCLGAFRDPVGFETDKLGGLMSKSFFSRFRQDGGPGCTERFIHTMDLFFIAVAQQAGDRANGITPDLESYITVRRDTSGCKPCFALIEYAAGIDLPDHVIYHPTLAAMEEATNDLVTWSNDIFSYNKEQVTDDTHNMIPVLMRERGLDLQGAVDFVGRLCKGTIERFETERARLPSWGPELDAQVQTYIEGLQNWIVGNLHWSFDSHRYFGKDGHAVKKHRIVKLLPKRVPQQA
2. Copu9 (Coniophora puteana RWD-64-598 SS2; C76V) (protein, full-length, codon-optimized, N-terminal hexa-His tag (pET-M11), expressed in E. coli BL21 RIL DE3; homodimer; 13 N-terminal residues not visible in crystal) MSPTATFTTTSSEENAPTKFILPDLVSDCTYPLLLNDNCEPVARASEQWLIAGARLQEPRRTKFMGLLAGELTAAVYPHADASHLRVCVDFMNWLFNMDDWLDDFDVDDTWGMRHCCLGAFRDPVGFETDKLGGLMSKSFFSRFRQDGGPGCTERFIHTMDLFFIAVAQQAGDRANGITPDLESYITVRRDTSGCKPCFALIEYAAGIDLPDHVIYHPTLAAMEEATNDLVTWSNDIFSYNKEQVTDDTHNMIPVLMRERGLDLQGAVDFVGRLCKGTIERFETERARLPSWGPELDAQVQTYIEGLQNWIVGSLHWSFDSHRYFGKDGHAVKKHRIVKLLPKRVPQQA

Reply:
3760
9250
